Values compiled from patent US20250206809A1.

Parameter MRHA IC100: see the listing below.
- measurement_target: CS6 on an ETEC strain (enterotoxigenic Escherichia coli)
- procedure_summary: cell-based or functional assay

Below: 3 binders and their reported MRHA IC100.
Name the recorded MRHA IC100 of the binder listed here: VHH antibody 1D7 (monomeric nanobody) (VHH) VHH: EVQLVESGGGLVQAGGSLTLSCAASERTFSYYVMAWFRQAPGKEREFVAGISMSGDSTKYADSVKGRFTISRDNAENTGYLQMNGLKPEDTAVYYCAADRDIRGNFRSWGRGTQVTVSS 12.5 µg/mL

Name the recorded MRHA IC100 of the binder listed here: VHH antibody 2R215 (monomeric nanobody) (VHH, Yeast-library clone, expressed in the E. coli periplasm and purified by Ni-NTA; also called monomeric 2R215; monomeric VHH 2R215) VHH: QVQLQESGGGLVQAGGSLRLSCAASGNIFQDAEMGWYRQAPGKEREFVATIAYGGNTNYADSVKGRFTISRDNAKNTVYLQMNSLKPEDTAVYYCAVYTGVYYDRTTGGYVAFEYWGQGTQVTVSS 25 µg/mL

Name the recorded MRHA IC100 of the binder listed here: VHH antibody 2R23 (monomeric nanobody) (VHH, Yeast-library clone, expressed in the E. coli periplasm) VHH: QVQLQESGGGLVQAGGSLRLSCAASGYIFWSYGYMGWYRQAPGKERELVATISRGGTTNYADSVKGRFTISRDNAKNTVYLQMNSLKPEDTAVYYCAAGRYAFGYFKYWGQGTQVTVSS 12.5 µg/mL

Now take the following binder into account.
Name the recorded MRHA IC100 of the binder listed here: VHH antibody 1H4 (monomeric nanobody) (VHH) VHH: EVQLVESGGGLVQAGGSLRLSCAASSRTFNHYNIGWFRQAPGKEREFAAAITWNGRSTLYADSVKGRFTISRDNAKNTVYLQMNSLKPEDTAVYYCATLTTWEHKWEYNSQGQGTQVTVSS 25 µg/mL
